Experiment: chemical genetic growth profiling, strain panel (AID 1159580);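 note: tested at 20 µM; growth read once vehicle control cultures reached saturation at 30 °C; 1 = growth at the plate median or of vehicle wells; lower values mean less growth of the strain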
Conditions: S. cerevisiae deletion strains, growth OD, locus YLR113W, strain HOG1, hits give low values
About 2,000 (36%) of roughly 5,500 compounds were called active. Inconclusive results (about 18%) are left out. The list shows a part of the results.
observation_type: normalized growth

>>> recorded_value("COc1ccc2cc([C@H](C)CO)ccc2c1")
0.929
>>> recorded_value("CN(C)C(=S)SSC(=S)N(C)C")
0.126
>>> recorded_value("CC(C(=O)O)c1cccc(Oc2ccccc2)c1 (stereo unspecified)")
0.828
>>> recorded_value("CN(C)CC/C=C1\\c2ccccc2Sc2ccc(Cl)cc21")
0.915
>>> recorded_value("COc1ccc2cc([C@H](C)C(=O)O)ccc2c1")
0.757
>>> recorded_value("C[C@H]1CC2C([C@@H](O)C[C@@]3(C)C2CC[C@]3(O)C(=O)CO)[C@@]2(C)C=CC(=O)C=C12 (stereo partly specified)")
1.03

###

Catalogue of normalized growth values
Assay: chemical genetic growth profiling, strain panel (AID 1159580);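 note: tested at 20 µM; growth read once vehicle control cultures reached saturation at 30 °C; 1 = growth at the plate median or of vehicle wells; lower values mean less growth of the strain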
Details: S. cerevisiae deletion strains, growth OD, locus YDR069C, strain doa4, hits give low values
Hit rate of the full screen: of about 5,500 compounds, about 2,000 (36%) were called active. Inconclusive results (about 18%) are left out. Some of the results follow.
observation_type: normalized growth

>>> recorded_value("COc1ccc2cc([C@H](C)CO)ccc2c1")
1.02
>>> recorded_value("COc1cc(NS(=O)(=O)c2ccc(N)cc2)nc(OC)n1")
0.957
>>> recorded_value("CC(C(=O)O)c1cccc(C(=O)c2ccccc2)c1 (configuration not stated)")
0.984
>>> recorded_value("Cc1cccc(C)c1OCC(C)N (configuration not stated)")
1.01
>>> recorded_value("C=C1C2CC[C@H]3[C@]4(C)C[C@H](OC5OC(CO)C(OS(=O)(=O)O)C(OS(=O)(=O)O)C5OC(=O)CC(C)C)C[C@@H](C(=O)O)[C@H]4CC[C@]3(C2)[C@H]1O (some centres not stated)")
1.02
>>> recorded_value("CN(C)C(=S)SSC(=S)N(C)C")
0.0622
>>> recorded_value("CC(C(=O)O)c1ccc(-c2ccccc2)c(F)c1 (configuration not stated)")
1.02
>>> recorded_value("COc1ccc2c3c1O[C@H]1C[C@@H](O)C=C[C@@]31CCN(C)C2")
0.997
>>> recorded_value("Cc1cc(O)c(C=O)c(O)c1C(=O)O")
0.977
>>> recorded_value("COc1ccc2c(c1OC)C(=O)O[C@@H]2[C@H]1c2cc3c(cc2CCN1C)OCO3")
0.981
>>> recorded_value("COc1cc(O)c(C(=O)/C=C/c2ccc(OC)c(O)c2)c(OC)c1")
1.06
>>> recorded_value("CCOC(=O)c1c(C)cc(O)c(C=O)c1O")
0.516
>>> recorded_value("COc1cc(/C=C/C(=O)/C=C(O)/C=C/c2ccc(O)c(OC)c2)ccc1O")
0.0822
>>> recorded_value("Cc1cc(O)c(C)c(O)c1C(=O)O")
0.956
>>> recorded_value("COc1ccc2c(C)cc(=O)oc2c1")
1
>>> recorded_value("COc1ccc2cc([C@H](C)C(=O)O)ccc2c1")
0.963
>>> recorded_value("COc1cc2c(cc1OC)[C@@H]1C(=O)c3ccc(O)c(CC=C(C)C)c3O[C@@H]1CO2")
1.08
>>> recorded_value("CC1=C(CC(=O)O)c2cc(F)ccc2/C1=C\\c1ccc(S(C)=O)cc1 (configuration not stated)")
1.01
>>> recorded_value("CO[C@H]1[C@H](O)[C@H](O[C@H]2CC[C@]3(C)C4CC[C@]5(C)C(C6=CC(=O)OC6)CC[C@]5(O)C4CC[C@@H]3C2)O[C@@H](C)[C@@H]1O (some centres not stated)")
0.997
>>> recorded_value("CC1=C(/C=C/C(C)=C/C=C/C(C)=C/C=C/C=C(C)/C=C/C=C(C)/C=C/C2=C(C)C(=O)C(O)CC2(C)C)C(C)(C)CC(O)C1=O (configuration not stated)")
1.04
>>> recorded_value("S=c1nc[nH]c2nc[nH]c12")
1.02
>>> recorded_value("CC1=C(/C=C/C(C)=C/C=C/C(C)=C/C=C/C=C(C)/C=C/C=C(C)/C=C/C2=C(C)C(=O)CCC2(C)C)C(C)(C)CCC1=O")
0.996
